Recorded Recovery, one value per entry.
test system: Mus musculus; experiment: Percent recovery of tyrosine hydroxylase immunostaining after oral administration at dose 10 mg/kg concurrently with MPTP; format: functional, organism-based; parameters: dose 10 mg/kg
property: Recovery (%)

{"structure_notation": "CCC(C)(C)C(=O)C(=O)N1CCC[C@H]1C(=O)OCCCc1cccnc1", "property": "Recovery", "units_text": "%", "reported_result": 43}
{"structure_notation": "CCC(C)(C)C(=O)C(=O)N1CCCC[C@H]1C(=O)SCCc1ccccc1", "property": "Recovery", "units_text": "%", "reported_result": 73}
{"structure_notation": "CCC(C)(C)C(=O)C(=O)N1CCCC[C@H]1C(=O)SCCC(c1ccccc1)c1ccccc1", "property": "Recovery", "units_text": "%", "reported_result": 81}
{"structure_notation": "CCC(C)(C)C(=O)C(=O)N1CCC[C@H]1C(=O)SCCCc1cccnc1", "property": "Recovery", "units_text": "%", "reported_result": 31}
{"structure_notation": "CCC(C)(C)C(=O)C(=O)N1CCC[C@H]1C(=O)SCCCc1ccc(C(F)(F)F)cc1", "property": "Recovery", "units_text": "%", "reported_result": 71}
{"structure_notation": "CCC(C)(C)C(=O)C(=O)N1CCC[C@H]1C(=O)SCCC(c1ccccc1)c1ccccc1", "property": "Recovery", "units_text": "%", "reported_result": 39}
{"structure_notation": "CCC(C)(C)C(=O)C(=O)N1CCC[C@H]1C(=O)SCCCCc1ccccc1", "property": "Recovery", "units_text": "%", "reported_result": 48}
{"structure_notation": "O=C(C(=O)N1CCC[C@H]1C(=O)SCCCc1ccccc1)C1CCCCC1", "property": "Recovery", "units_text": "%", "reported_result": 52}
{"structure_notation": "CCC(C)(C)C(=O)C(=O)N1CCC[C@H]1C(=O)SCCCc1ccc2ccccc2c1", "property": "Recovery", "units_text": "%", "reported_result": 36}
{"structure_notation": "CCC(C)(C)C(=O)C(=O)N1CCC[C@H]1C(=O)SCCCc1ccccc1", "property": "Recovery", "units_text": "%", "reported_result": 72}
{"structure_notation": "CCC(C)(C)C(=O)C(=O)N1CCC[C@H]1C(=O)SCCc1ccccc1", "property": "Recovery", "units_text": "%", "reported_result": 66}
{"structure_notation": "O=C(C(=O)N1CCC[C@H]1C(=O)SCCc1ccccc1)C1CCCC1", "property": "Recovery", "units_text": "%", "reported_result": 41}

---

pKi tested on UniProtKB P62942: recorded values
Sequence (P62942 whole entry): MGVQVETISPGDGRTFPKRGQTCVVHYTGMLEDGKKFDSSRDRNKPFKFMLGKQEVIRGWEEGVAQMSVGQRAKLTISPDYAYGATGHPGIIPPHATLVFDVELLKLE
pKi: −log10 of the molar value.

{"structure_notation": "CCC(C)(C)C(=O)C(=O)N1CCCC[C@H]1C(=O)NCCC(c1ccccc1)c1ccccc1", "pKi": 6.38}
{"structure_notation": "CCC(C)(C)C(=O)C(=O)N1CCC[C@H]1C(=O)NCCCc1cccnc1", "pKi": 6.09}

src = ChEMBL document CHEMBL1135538
